experiment: Rat biodistribution of Tc-99m complexes; details: 60 min p.i.
Label -1 if Heart falls below 0.05 % Injected dose/organ; label 1 in every other case.

Below are worked cases with known answers.
> print(dat)
                                   compound  group
1  C1CC(CP(CCP(CC2CCOCC2)CC2CCOCC2)CC2CCOCC2)CCO1     -1
2  C1COC(CP(CCP(CC2CCCO2)CC2CCCO2)CC2CCCO2)C1 (stereo not drawn)      1
3                 CCOCP(CCCP(COCC)COCC)COCC      1
4  FC(F)(F)COCCCP(CCCOCC(F)(F)F)CCP(CCCOCC(F)(F)F)CCCOCC(F)(F)F      1
5  COC(CCP(CCC(OC)OC)CCP(CCC(OC)OC)CCC(OC)OC)OC     -1

# input Record CCOCCOCCP(CCOCCOCC)CCP(CCOCCOCC)CCOCCOCC ; criterion: Heart no lower than 0.05 % Injected dose/organ. Met?
# output 1

# input Same again, this time with CCOCCP(CCOCC)CCP(CCOCC)CCOCC [Compound 1, (EtOC2 H4)2 P--C2 H4 --P(C2 H4 OEt)2]
# output 1

# input Request: CCOC=CP(C=COCC)CCP(C=COCC)C=COCC
# output 1
